Tested on: NCI-H460
Assay: NCI-60 one-dose screen
Assay type: cell-based
Conditions: Homo sapiens; NCI-H460, Non-small cell lung panel; single dose 10^−5 M; read-out: Growth inhibition %
Below, each entry is listed alongside its reported inhibition at 10 µM.
Dear colleague, please return just the value in %, with no unit written.

Example entries and their recorded answers appear below.
structureSmilesString | inhibition at 10 µM [%]
c1ccc(CNc2c3ccccc3nc3ccccc23)cc1 | 89.7
Cc1ccc2nc3ccccc3c(NCc3ccc(Cl)cc3)c2c1 | 70.5
Fc1ccc(CNc2c3ccccc3nc3ccccc23)c(F)c1 | 80

Please examine the following record next.
Query Cc1ccc2nc3ccccc3c(NCc3ccccc3)c2c1 on NCI-H460; inhibition at 10 µM returned: 82.9

---

Test system: OVCAR-5
Test: NCI-60 one-dose screen
Type: cell-based
Conditions: Homo sapiens; OVCAR-5, Ovarian Cancer panel; single dose 10^−5 M; read-out: Growth inhibition %
Below, each entry is listed alongside its reported inhibition at 10 µM.
Dear colleague, please return just the value in %, with no unit written.

Example entries and their recorded answers appear below.
structureSmilesString | unitSpec | inhibition at 10 µM
Cc1ccc2nc3ccccc3c(NCc3ccccc3)c2c1 | % | 59.6
COc1ccc(CNc2c3ccccc3nc3ccc(OC)cc23)cc1 | % | 69.3
COc1ccc2nc3ccccc3c(NCc3ccc(C)cc3)c2c1 | % | 66

The compound listed as Cc1ccc2nc3ccccc3c(NCc3ccc(Cl)cc3)c2c1 shows inhibition at 10 µM equal to 49.3

The compound listed as Clc1cccc(CNc2c3ccccc3nc3ccccc23)c1 shows inhibition at 10 µM equal to 67.6

---

System: CCRF-CEM
Test: NCI-60 one-dose screen
Assay type: cell-based
Details: Homo sapiens, Leukemia panel, single dose 10^−5 M, read-out: Growth inhibition %
Respond with true (1) for inhibition at 10 µM values of 80% and above, false (0) for values below.

The examples below pair each entry with its known result.
structureSmilesString | labelValue
COc1ccc2nc3ccccc3c(NCc3ccccc3)c2c1 | false (0)
Cc1ccccc1CNc1c2ccccc2nc2ccccc12 | true (1)
Cc1cccc(CNc2c3ccccc3nc3ccccc23)c1 | true (1)
COc1ccc2nc3ccccc3c(NCc3ccc(C)cc3)c2c1 | true (1)
c1csc(-c2ccc(CNc3c4ccccc4nc4ccccc34)cc2)c1 | true (1)

Now examine the next entry.
Exam item: Textbook exercise: given the entry COc1ccc(CNc2c3ccccc3nc3ccccc23)c(OC)c1 , state whether its inhibition at 10 µM is greater than or equal to 80%.
Marked response: false (0)

---

Test system: SK-MEL-5
Experiment: NCI-60 one-dose screen
Format: cell-based
Conditions: Homo sapiens; SK-MEL-5, Melanoma panel; single dose 10^−5 M; read-out: Growth inhibition %
readoutName: inhibition at 10 µM (%)
Dear colleague, please return just the value in %, with no unit written.

structureSmilesString | readoutName | unitSpec | recordedValue
Cc1ccc(CNc2c3ccccc3nc3ccccc23)cc1 | inhibition at 10 µM | % | 69.9
Clc1ccc(CNc2c3ccccc3nc3ccccc23)cc1 | inhibition at 10 µM | % | 38.8
Clc1cccc(CNc2c3ccccc3nc3ccccc23)c1 | inhibition at 10 µM | % | 33.8
COc1ccc(CNc2c3ccccc3nc3ccc(OC)cc23)cc1 | inhibition at 10 µM | % | 88.9
COc1ccccc1CNc1c2ccccc2nc2ccccc12 | inhibition at 10 µM | % | 40.8
COc1cccc(CNc2c3ccccc3nc3ccccc23)c1 | inhibition at 10 µM | % | 42.4

The compound listed as Cc1ccccc1CNc1c2ccccc2nc2ccccc12 shows inhibition at 10 µM equal to 66.1

Values from paper PMC9866191
